Entries and their remaining activity at 2 mg/kg
- Tested system: proteasome Chymotrypsin-like (CT-L) activity (Mus musculus, UniProt O09061+O55234)
- Construct: RBCs were lysed with assay lysis buffer and incubated on ice for 30 minutes; from tissue; host or cells: red blood cells of NOD/SCID mice
- Test: Pharmacodynamic proteasome activity in murine red blood cells, CT-L
- Assay type: in vivo, NOD/SCID mice
- Particulars: iv, mice, 2 mg/kg i.v., 24 hrs, read-out: Chymotrypsin-like (CT-L) mean residual activity relative to vehicle treated controls
The response must be a number in % with no trailing unit.

CC(C)C[C@H](NC(=O)[C@H](COC(F)F)NC(=O)[C@H](COC(F)F)NC(=O)[C@H](COC(F)F)NC(=O)CN1CCOCC1)C(=O)[C@@]1(C)CO1 23
CC(C)C[C@H](NC(=O)[C@H](Cc1ccccc1)NC(=O)[C@H](COC(F)F)NC(=O)[C@H](COC(F)F)NC(=O)CN1CCOCC1)C(=O)[C@@]1(C)CO1 28

# next molecule below
[in] Please give the documented remaining activity at 2 mg/kg of CC(C)C[C@H](NC(=O)[C@H](COC(F)F)NC(=O)CN1CCOCC1)C(=O)N[C@@H](Cc1ccccc1)C(=O)N[C@@H](CC(C)C)C(=O)[C@@]1(C)CO1
[out] 24
